Experiment: Inhibition of His-6-tagged HIV-1 integrase-recombinant flag-tagged LEDGF/p75 (unknown origin) interaction at 100 uM after 1hr by AlphaScreen assay
Listed below: inhibition values for each entry.

[
  {
    "Structure As Smiles": "Cc1cc(C)c(Cn2cc(C(=O)/C=C(\\O)C(=O)O)c3cc(F)ccc32)c(C)c1",
    "inhibition": "71%"
  },
  {
    "Structure As Smiles": "COc1ccc2c(c1)c(C(=O)/C=C(\\O)C(=O)O)cn2Cc1cc(C)cc(C)c1",
    "inhibition": "89%"
  },
  {
    "Structure As Smiles": "COc1ccc2c(c1)c(C(=O)/C=C(\\O)C(=O)O)cn2Cc1ccc(C(C)(C)C)cc1",
    "inhibition": "65%"
  },
  {
    "Structure As Smiles": "COc1ccc2c(c1)c(C(=O)/C=C(\\O)C(=O)O)cn2Cc1ccc(C(F)(F)F)cc1",
    "inhibition": "40%"
  },
  {
    "Structure As Smiles": "O=C1OCC(C(=O)c2cn(Cc3ccc(C(F)(F)F)cc3)c3ccc(Cl)cc23)=C1O",
    "inhibition": "92%"
  },
  {
    "Structure As Smiles": "Cc1cc(C)c(Cn2cc(C(=O)/C=C(\\O)C(=O)O)c3cc(Cl)ccc32)c(C)c1",
    "inhibition": "59%"
  },
  {
    "Structure As Smiles": "Cc1cc(C)c(Cn2cc(C(=O)C3=C(O)C(=O)OC3)c3cc(Cl)ccc32)c(C)c1",
    "inhibition": "85%"
  },
  {
    "Structure As Smiles": "COc1ccc2c(c1)c(C(=O)C1=C(O)C(=O)OC1)cn2Cc1ccc(-c2ccccc2)cc1",
    "inhibition": "51%"
  },
  {
    "Structure As Smiles": "COc1ccc2c(c1)c(C(=O)C1=C(O)C(=O)OC1)cn2Cc1cc(C)cc(C)c1",
    "inhibition": "66%"
  },
  {
    "Structure As Smiles": "CC(C)(C)c1ccc(Cn2cc(C(=O)C3=C(O)C(=O)OC3)c3cc(Cl)ccc32)cc1",
    "inhibition": "83%"
  },
  {
    "Structure As Smiles": "O=C1OCC(C(=O)c2cn(Cc3ccc(-c4ccccc4)cc3)c3ccc(F)cc23)=C1O",
    "inhibition": "89%"
  },
  {
    "Structure As Smiles": "CC(C)(C)c1ccc(Cn2cc(C(=O)/C=C(\\O)C(=O)O)c3cc(Cl)ccc32)cc1",
    "inhibition": "88%"
  },
  {
    "Structure As Smiles": "COc1ccc2c(c1)c(C(=O)C1=C(O)C(=O)OC1)cn2Cc1ccc(C(C)(C)C)cc1",
    "inhibition": "93%"
  },
  {
    "Structure As Smiles": "Cc1cc(C)cc(Cn2cc(C(=O)C3=C(O)C(=O)OC3)c3cc(F)ccc32)c1",
    "inhibition": "73%"
  },
  {
    "Structure As Smiles": "O=C1OCC(C(=O)c2cn(Cc3ccc(C(F)(F)F)cc3C(F)(F)F)c3ccc(Cl)cc23)=C1O",
    "inhibition": "86%"
  },
  {
    "Structure As Smiles": "O=C(O)/C(O)=C/C(=O)c1cn(Cc2ccc(C(F)(F)F)cc2)c2ccc(Cl)cc12",
    "inhibition": "80%"
  },
  {
    "Structure As Smiles": "COc1ccc2c(c1)c(C(=O)/C=C(\\O)C(=O)O)cn2Cc1c(C)cc(C)cc1C",
    "inhibition": "72%"
  },
  {
    "Structure As Smiles": "CC(C)(C)c1ccc(Cn2cc(C(=O)/C=C(\\O)C(=O)O)c3cc(F)ccc32)cc1",
    "inhibition": "33%"
  }
]
